Listing of recorded recombinant barcode read abundance (log10) by entry.
Experiment: recombinant barcode read abundance after kanamycin selection (control-corrected) (log10(CPM+1)); higher = more efficient recombination; sequences stand for … in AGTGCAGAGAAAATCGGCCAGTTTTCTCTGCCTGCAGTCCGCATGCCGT…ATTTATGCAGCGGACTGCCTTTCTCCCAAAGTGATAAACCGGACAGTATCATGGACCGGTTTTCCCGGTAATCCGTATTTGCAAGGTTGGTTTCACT; site = the 11-nt target
measured quantity: recombinant barcode read abundance (log10)

# sequence, value measured
records = [
    ("GGACACCGCTGGGTTCTAACCTGTTGCCTGC [GGACACCCTAG_LTGcore_GC_RTGcore_GC] (site GGACACCCTAG) (LTG core: GC, RTG core: GC)", 0.0534),
    ("AAACACAATTGGGTTCTAACCTGTTGCCTAT [AAACACACTAG_LTGcore_AT_RTGcore_AT] (site AAACACACTAG) (LTG core: AT, RTG core: AT)", 0.209),
    ("AAACAGTGCTGGGTTCTAACCTGTTGCCTGC [AAACAGTCTAG_LTGcore_GC_RTGcore_GC] (site AAACAGTCTAG) (LTG core: GC, RTG core: GC)", 0.0997),
    ("TGATACCCTTGGGTTCTAACCTGTTGCGTTC [TGATACCCTAC_LTGcore_CT_RTGcore_GA] (site TGATACCCTAC) (LTG core: CT, RTG core: GA)", 0.335),
    ("GGACACCGGTGGGTTCTAACCTGTTGCCTCC [GGACACCCTAG_LTGcore_GG_RTGcore_GG] (site GGACACCCTAG) (LTG core: GG, RTG core: GG)", 0.0801),
]
